Taken from patent US8628771B2.

This section presents molecules with their documented Ki values.
tgt: hCA I (Homo sapiens, UniProt P00915)
Construct: made in house; host or cells: Escherichia coli BL21 (DE3)
Sequence (P00915 whole entry): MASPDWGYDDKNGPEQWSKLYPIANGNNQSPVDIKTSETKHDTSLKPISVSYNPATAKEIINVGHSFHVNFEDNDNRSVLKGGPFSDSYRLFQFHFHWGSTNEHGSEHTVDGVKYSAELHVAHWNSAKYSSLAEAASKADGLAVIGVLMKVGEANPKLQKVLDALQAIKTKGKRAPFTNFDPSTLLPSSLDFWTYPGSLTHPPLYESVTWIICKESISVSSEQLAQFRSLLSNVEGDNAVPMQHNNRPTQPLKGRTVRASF
assay: CA esterase activity assay, isozyme hCA I
Format: biochemical
condition.summary: Table 3; human (cloned) isozymes, esterase assay method; read-out: KI hCA I
Just the number in nM, nothing appended.

Below, each entry is followed by its recorded Ki result.
{"structure.smiles.string": "NS(=O)(=O)c1nnc(NS(=O)(=O)c2ccc(-[n+]3c(-c4ccccc4)cc(-c4ccccc4)cc3-c3ccccc3)cc2)s1", "tgt": "hCA I (Homo sapiens, UniProt P00915)", "units.label": "nM", "Ki": 5}
{"structure.smiles.string": "CCc1cc(-c2ccccc2)cc(CC)[n+]1-c1ccc(S(=O)(=O)Nc2nnc(S(N)(=O)=O)s2)cc1", "tgt": "hCA I (Homo sapiens, UniProt P00915)", "units.label": "nM", "Ki": 4}
{"structure.smiles.string": "CCCCc1cc(-c2ccccc2)cc(CCCC)[n+]1-c1ccc(S(=O)(=O)Nc2nnc(S(N)(=O)=O)s2)cc1", "tgt": "hCA I (Homo sapiens, UniProt P00915)", "units.label": "nM", "Ki": 10}
{"structure.smiles.string": "Cc1cc(C(C)C)[n+](-c2ccc(S(=O)(=O)Nc3nnc(S(N)(=O)=O)s3)cc2)c(C(C)C)c1", "tgt": "hCA I (Homo sapiens, UniProt P00915)", "units.label": "nM", "Ki": 7}
{"structure.smiles.string": "CCCc1cc(-c2ccccc2)cc(CCC)[n+]1-c1ccc(S(=O)(=O)Nc2nnc(S(N)(=O)=O)s2)cc1", "tgt": "hCA I (Homo sapiens, UniProt P00915)", "units.label": "nM", "Ki": 9}

[Q] Quick check: Ki on hCA I (Homo sapiens, UniProt P00915), item `Cc1cc(-c2ccccc2)cc(-c2ccccc2)[n+]1-c1ccc(S(=O)(=O)Nc2nnc(S(N)(=O)=O)s2)cc1` ?
[A] 4

[Q] What about this molecule? `CC(C)c1cc(-c2ccccc2)cc(C(C)C)[n+]1-c1ccc(S(=O)(=O)Nc2nnc(S(N)(=O)=O)s2)cc1`
[A] 5

[Q] What about this molecule? `CC(C)c1cc(-c2ccccc2)cc(-c2ccccc2)[n+]1-c1ccc(S(=O)(=O)Nc2nnc(S(N)(=O)=O)s2)cc1`
[A] 6

[Q] What about this molecule? `Cc1c(-c2ccccc2)cc(C)[n+](-c2ccc(S(=O)(=O)Nc3nnc(S(N)(=O)=O)s3)cc2)c1C`
[A] 3

[Q] What about this molecule? `CCc1cc(-c2ccccc2)cc(-c2ccccc2)[n+]1-c1ccc(S(=O)(=O)Nc2nnc(S(N)(=O)=O)s2)cc1`
[A] 5

[Q] What about this molecule? `CC(C)(C)c1cc(-c2ccccc2)cc(-c2ccccc2)[n+]1-c1ccc(S(=O)(=O)Nc2nnc(S(N)(=O)=O)s2)cc1`
[A] 12

[Q] What about this molecule? `Cc1cc(C)[n+](-c2ccc(S(=O)(=O)Nc3nnc(S(N)(=O)=O)s3)cc2)c(C(C)C)c1`
[A] 4

[Q] What about this molecule? `Cc1cc(C(C)(C)C)[n+](-c2ccc(S(=O)(=O)Nc3nnc(S(N)(=O)=O)s3)cc2)c(C(C)(C)C)c1`
[A] 11

[Q] What about this molecule? `CCCCc1cc(-c2ccccc2)cc(-c2ccccc2)[n+]1-c1ccc(S(=O)(=O)Nc2nnc(S(N)(=O)=O)s2)cc1`
[A] 8
